assay.notes: viability loss of mouse 3T3 cells – cell-based, cherry-pick, single point, set 2, cytotoxicity control, confirmation (AID 651744)
stated.conditions: NIH/3T3 viability, CellTiter-Glo ATP luminescence, 90 h; at 24.9 µM; hits give high values
Among all 5,600 compounds or so, about 3,100 (55%) were called active. About 3% were inconclusive and are not listed. So high a share suggests a set chosen from earlier hits. A selection follows.
Could you mark each record YES if its inhibition falls strictly under 10%, and NO if it equals or exceeds it?

{"structure.smiles": "C[C@@H](O)C#Cc1ccc([C@@H]2[C@H](CO)N3CCCCN(S(=O)(=O)c4ccccc4)C[C@@H]23)cc1", "category": "YES"}
{"structure.smiles": "CC(C)CC#Cc1ccc2c(c1)O[C@H](CN(C)Cc1ccncc1)[C@H](C)CN([C@H](C)CO)S2(=O)=O", "category": "NO"}
{"structure.smiles": "C[C@H](O)C#Cc1ccc([C@H]2[C@H]3CN(S(=O)(=O)Cc4ccccc4)CCCCN3[C@H]2CO)cc1", "category": "NO"}
{"structure.smiles": "CN1C(=O)c2cc(NC(=O)Nc3ccccc3F)ccc2OC[C@H]2O[C@H](CC(=O)NCc3ccc(-c4ccccc4)cc3)CC[C@H]21", "category": "NO"}
{"structure.smiles": "C[C@@H]1CN([C@H](C)CO)C(=O)CCCn2nncc2CO[C@@H]1CN(C)Cc1ccc(C(=O)Nc2ccccc2N)cc1", "category": "YES"}
{"structure.smiles": "O=C(C1CCC1)N1CCCCN2[C@H](CO)[C@H](c3ccc(-c4cccc(F)c4)cc3)[C@@H]2C1", "category": "YES"}
{"structure.smiles": "C[C@H](O)C#Cc1ccc([C@@H]2[C@H]3CN(S(=O)(=O)c4ccccc4)CCCCN3[C@H]2CO)cc1", "category": "NO"}
{"structure.smiles": "C[C@@H]1CCCCO[C@H](CN(C)C(=O)Nc2cccc3ccccc23)[C@H](C)CN([C@H](C)CO)C(=O)c2cc(NS(=O)(=O)c3cccs3)ccc2O1", "category": "YES"}
{"structure.smiles": "C/C=C/c1ccc([C@H]2[C@H]3CN(S(=O)(=O)c4ccccc4)CCCCN3[C@H]2CO)cc1", "category": "NO"}
{"structure.smiles": "COc1ccccc1NC(=O)N1CCCCN2[C@H](C1)[C@H](c1ccc(-c3ccccc3)cc1)[C@@H]2CO", "category": "NO"}
{"structure.smiles": "C[C@@H]1CN([C@@H](C)CO)S(=O)(=O)c2ccc(C#Cc3ccc(F)cc3)cc2O[C@H]1CN(C)S(C)(=O)=O", "category": "NO"}
{"structure.smiles": "O=C(Nc1ccccc1F)N1CCCCN2[C@H](CO)[C@@H](c3ccc(-c4cccnc4)cc3)[C@H]2C1", "category": "NO"}
{"structure.smiles": "CN1c2ccc(-c3ccccc3)cc2[C@H]2[C@H](CCN2C(=O)Cc2ccccn2)[C@H]1CO", "category": "YES"}
{"structure.smiles": "CC(=O)N(C)C[C@@H]1[C@@H](c2ccc(-c3ccccc3F)cc2)[C@@H](CO)N1C(C)=O", "category": "YES"}
{"structure.smiles": "CCC(=O)N1CC[C@@H]2[C@@H](CO)N(C)c3ccc(-c4ccc(F)cc4)cc3[C@@H]21", "category": "NO"}
{"structure.smiles": "CCC(=O)N1CCCCN2[C@H](C1)[C@@H](c1ccc(/C=C/c3ccccc3)cc1)[C@@H]2CO", "category": "NO"}
{"structure.smiles": "C[C@@H]1CN([C@H](C)CO)C(=O)c2cc(-c3cncnc3)cnc2O[C@H]1CN(C)C(=O)Nc1ccc2c(c1)OCO2", "category": "YES"}
{"structure.smiles": "N#Cc1cccc(-c2ccc([C@H]3[C@H](CO)N4CCCCN(C(=O)Nc5cccc(F)c5)C[C@@H]34)cc2)c1", "category": "NO"}
{"structure.smiles": "C[C@H](CO)N1C[C@H](C)[C@H](CN(C)C(=O)Nc2ccc(C(F)(F)F)cc2)OCCCC[C@H](C)Oc2ccc(NC(=O)C3CCCCC3)cc2C1=O", "category": "YES"}
{"structure.smiles": "COc1ccccc1C#Cc1ccc([C@H]2[C@H](CO)N3CCCCN(C(=O)C4CCC4)C[C@@H]23)cc1", "category": "NO"}
{"structure.smiles": "COc1cccc(C#Cc2ccc([C@@H]3[C@H](C#N)N[C@H]3CO)cc2)c1", "category": "NO"}
{"structure.smiles": "C[C@H](CO)N1C[C@H](C)[C@H](CN(C)C(=O)C2CCCCC2)Oc2ncc(C#Cc3cccc(F)c3)cc2C1=O", "category": "NO"}
{"structure.smiles": "C[C@@H]1CN([C@H](C)CO)S(=O)(=O)c2ccc(C#Cc3ccncc3)cc2O[C@@H]1CN(C)S(=O)(=O)c1ccc(F)cc1", "category": "NO"}
{"structure.smiles": "O=C(CN1CCOCC1)N1CCCCN2[C@@H](CO)[C@H](c3ccc(-c4ccccc4)cc3)[C@@H]2C1", "category": "YES"}
{"structure.smiles": "C[C@@H]1CN([C@@H](C)CO)C(=O)Cc2cc(NC(=O)C3CCCCC3)ccc2O[C@@H]1CN(C)Cc1ccc(C(=O)Nc2ccccc2N)cc1", "category": "NO"}
{"structure.smiles": "CCC(=O)N1CCCCN2[C@H](C1)[C@@H](c1ccc(-c3ccc(F)cc3)cc1)[C@@H]2CO", "category": "NO"}
{"structure.smiles": "C[C@@H]1CCCCO[C@@H](CN(C)Cc2ccccc2)[C@H](C)CN([C@H](C)CO)C(=O)c2cc(NC(=O)Nc3cccc4ccccc34)ccc2O1", "category": "NO"}
{"structure.smiles": "C[C@H]1CCCCO[C@H](CN(C)Cc2ccc(C(F)(F)F)cc2)[C@@H](C)CN([C@@H](C)CO)C(=O)c2cc(NC(=O)C3CCCCC3)ccc2O1", "category": "NO"}
{"structure.smiles": "COc1ccccc1C#Cc1ccc([C@@H]2[C@H](CO)N3CCCCN(C(=O)C4CCCC4)C[C@@H]23)cc1", "category": "NO"}
{"structure.smiles": "O=C(C1CCC1)N1CCCCN2[C@H](CO)[C@H](c3ccc(-c4ccncc4)cc3)[C@@H]2C1", "category": "YES"}
{"structure.smiles": "CCCNC(=O)N1[C@@H]2c3cccc(=O)n3C[C@H]1[C@H](CO)[C@H]2C(=O)NCC(F)(F)F", "category": "YES"}
